Ref: BindingDB's records for patent US20250313563

pIC50: −log10 of the molar value.
Entries with reported pIC50 on Glycogen synthase kinase-3 alpha (Homo sapiens, UniProt P49840)
Sequence (P49840 whole entry): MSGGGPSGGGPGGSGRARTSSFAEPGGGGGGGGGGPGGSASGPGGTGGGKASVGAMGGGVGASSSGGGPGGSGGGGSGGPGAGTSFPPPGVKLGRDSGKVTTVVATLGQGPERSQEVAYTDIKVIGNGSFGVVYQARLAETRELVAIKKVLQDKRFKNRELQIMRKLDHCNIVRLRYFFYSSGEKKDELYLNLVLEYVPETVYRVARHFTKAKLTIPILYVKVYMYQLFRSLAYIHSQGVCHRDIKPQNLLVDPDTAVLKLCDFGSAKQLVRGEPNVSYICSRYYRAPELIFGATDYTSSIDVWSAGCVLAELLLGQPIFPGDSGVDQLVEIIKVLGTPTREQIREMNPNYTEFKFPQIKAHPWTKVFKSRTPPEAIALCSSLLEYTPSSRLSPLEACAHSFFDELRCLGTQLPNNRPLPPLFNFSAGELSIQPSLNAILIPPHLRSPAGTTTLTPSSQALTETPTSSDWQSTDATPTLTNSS
QUANTITY: pIC50

{"columns": ["MOLECULE", "QUANTITY", "OBSERVED VALUE"],
 "data": [
  ["CCC1(c2cccc(C(F)(F)F)c2)C2=CN=NC2NC2=C1C(=O)N(C(C)C)CC2 (stereo unspecified)", "pIC50", "> 7.00"],
  ["CC[C@]1(c2cccc(S(=O)(=O)C(C)C)c2)C2=C(CC(C)(C)NC2=O)NC2N=NC(C(F)(F)F)=C21 (stereo partly specified)", "pIC50", "> 7.00"],
  ["CCC1(c2cccc(OC)c2)C2=C(CC(C)(C)NC2=O)NC2N=NC(C)=C21 (stereo unspecified)", "pIC50", "> 7.00"],
  ["CC1(C)CC(=O)C2=C(C1)NC1N=NC(Br)=C1[C@]21CCc2c(F)cccc21 (stereo partly specified)", "pIC50", "> 7.00"],
  ["CC[C@@]1(c2cccc(C(F)(F)F)c2)C2=CN=NC2NC2=C1C(=O)N(Cc1ccccc1)CC2 (stereo partly specified)", "pIC50", "< 5.30"],
  ["CCc1cc(N(C)c2cccc(C3(CC)C4=CN=NC4NC4=C3C(=O)CC(C)(C)C4)c2)ccn1 (stereo unspecified) [US20250313563, Compound 945600]", "pIC50", "6.00 to 7.00"]
]}
